Source: patent US20190282704A1

biological target: wildtype feline IL-31 (Feline_IL31_wildtype) (feline); test: SPR (Biacore), immobilised IL-31, 1:1 fit
Sequence (chain, as listed by the source limits assumed, form in doubt): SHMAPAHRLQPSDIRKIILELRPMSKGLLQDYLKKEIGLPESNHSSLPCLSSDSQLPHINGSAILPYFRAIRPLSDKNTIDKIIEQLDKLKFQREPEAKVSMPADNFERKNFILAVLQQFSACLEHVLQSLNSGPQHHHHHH
Give kon for every item shown.
Numbers only, in M⁻¹ s⁻¹.

Feline 15H05 1.1 FW2_3 (antibody, V domains shown) VH: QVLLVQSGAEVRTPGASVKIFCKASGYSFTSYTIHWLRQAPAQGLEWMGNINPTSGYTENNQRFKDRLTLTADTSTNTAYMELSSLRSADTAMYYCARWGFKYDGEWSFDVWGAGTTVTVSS VL: EIQMTQSPSSLSASPGDRVTITCRASQGISIWLSWYQQKPGNIPKVLINKASNLHIGVPPRFSGSGSGTHFTLTITSLQPEDIATYYCLQSQTYPLTFGGGTKLEIK : 9490

Pending binder:
// kon lookup, key: Feline 11E12 1.1 K46Q (antibody, V domains shown) VH: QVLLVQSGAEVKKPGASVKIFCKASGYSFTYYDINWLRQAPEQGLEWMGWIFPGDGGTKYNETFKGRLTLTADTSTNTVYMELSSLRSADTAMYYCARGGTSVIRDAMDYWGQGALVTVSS VL: EIQMTQSPSSLSASPGDRVTITCRASESVDNYGISFMHWYQQKPGQVPKLLIYRASNLESGVPSRFSGSGSGTDFTLTISSLEPEDAATYYCQQSNKDPLTFGQGT
11500
